Record form. Attribute: SH2 binding enrichment. Fill in for each entry.
experimental system: c-Src SH2
assay explanation: SH2 binding enrichment of the phosphorylated peptide, bacterial display (enrichment ratio); higher = better substrate or ligand; peptides without Tyr show the background;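 also: peptide library displayed on the E. coli surface as eCPX fusions, selected cells deep-sequenced, score is each peptide's frequency after selection divided by its frequency in the input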
Answer with a number only.

Assign SH2 binding enrichment to the following record: PRPAGYPSTVS [CACNA1C_Y1832]
0.484

Assign SH2 binding enrichment to the following record: DGTVHYVDEKG [IFT140_Y216]
0.381

Assign SH2 binding enrichment to the following record: HNLFSYPTKFE [MYO3A_Y1396_H1400Y_YF]
0.503

Assign SH2 binding enrichment to the following record: HGTKVYIDPFT [EPHB4_Y590]
0.788

Assign SH2 binding enrichment to the following record: DRLASYLDKVR [KRT10_Y160]
0.507

Assign SH2 binding enrichment to the following record: CNTIHYNFMCN [TP53_Y234_T230N_YF]
2.09

Assign SH2 binding enrichment to the following record: ESPGLYGFLNV [BCR_Y910]
0.479

Assign SH2 binding enrichment to the following record: KNNSIYVVANI [VNN1_Y134]
0.671

Assign SH2 binding enrichment to the following record: GEEIKYMLWLS [OTC_Y55]
0.346

Assign SH2 binding enrichment to the following record: AHAGEHGAEAL [HBA1_Y25_Y25H]
0.484

Assign SH2 binding enrichment to the following record: LTSKPYAFTAW [NDUFS1_Y236_R241W]
0.749

Assign SH2 binding enrichment to the following record: TNRSFYFKPSL [NUP153_Y382_V381F]
0.806

Assign SH2 binding enrichment to the following record: MWGSDYVHLSR [MAP3K4_Y582_Q584H]
0.568

Assign SH2 binding enrichment to the following record: ESVNTYLQTSP [NAT1_Y208_M205V]
0.395

====

experimental system: SHP2-C SH2
assay explanation: SH2 binding enrichment of the phosphorylated peptide, bacterial display (enrichment ratio); higher = better substrate or ligand; peptides without Tyr show the background
Everything with SH2 binding enrichment lower than 0.7 is Condition not met; everything else, including exactly 0.7, is Condition met.

Form field: SH2 binding enrichment at least 0.7? Entry: AVAFLYYKSIG [ADGRL4_Y301_V300L]
Condition not met

Form field: SH2 binding enrichment at least 0.7? Entry: MSSLFYANTLF [HOXB7_Y6_YF]
Condition met

Form field: SH2 binding enrichment at least 0.7? Entry: QTENKYDSVSG [EIF2AK3_Y565]
Condition met

Form field: SH2 binding enrichment at least 0.7? Entry: KVKVEYDMTVP [AHNAK_Y964_G962V]
Condition not met

Form field: SH2 binding enrichment at least 0.7? Entry: TLLERYGMTEI [ACSF3_Y355]
Condition met

Form field: SH2 binding enrichment at least 0.7? Entry: QLHREYCLSPR [HJURP_Y445]
Condition met

Form field: SH2 binding enrichment at least 0.7? Entry: VTRANYFIRDE [GNAS_Y339_K338N]
Condition met

Form field: SH2 binding enrichment at least 0.7? Entry: VVGMLYVGGLP [LAMA2_Y2886]
Condition met

Form field: SH2 binding enrichment at least 0.7? Entry: MGGSLYFSFPD [HIKESHI_Y55_V54L_YF]
Condition not met

Form field: SH2 binding enrichment at least 0.7? Entry: LKEIRYPPYTD [ALDH3B2_Y362_H361R]
Condition met

Form field: SH2 binding enrichment at least 0.7? Entry: VICRRYLVMQR [IL3RA_Y328]
Condition not met

Form field: SH2 binding enrichment at least 0.7? Entry: GQSKGYRPKLY [SIPA1L3_Y1376]
Condition met

Form field: SH2 binding enrichment at least 0.7? Entry: HLELNYKEDEY [MME_Y502_Y497H]
Condition not met

====

experimental system: Grb2 SH2 (UniProt P62993)
Sequence (P62993 whole entry, looked up): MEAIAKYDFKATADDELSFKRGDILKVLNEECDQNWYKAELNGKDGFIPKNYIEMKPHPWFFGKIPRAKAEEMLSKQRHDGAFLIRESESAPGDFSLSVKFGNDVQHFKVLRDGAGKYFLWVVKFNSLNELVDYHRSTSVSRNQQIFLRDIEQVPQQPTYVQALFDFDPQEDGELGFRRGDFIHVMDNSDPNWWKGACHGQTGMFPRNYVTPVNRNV
assay explanation: SH2 binding enrichment of the phosphorylated peptide, bacterial display (enrichment ratio); higher = better substrate or ligand; peptides without Tyr show the background
Everything with SH2 binding enrichment lower than 0.8 is NOT MET; everything else, including exactly 0.8, is MET.

Form field: SH2 binding enrichment at least 0.8? Entry: LDPMVYMNDTS [PTK2B_Y834_K838T]
MET

Form field: SH2 binding enrichment at least 0.8? Entry: MGGSLYFSFPD [HIKESHI_Y55_V54L_YF]
MET

Form field: SH2 binding enrichment at least 0.8? Entry: RRGTGYTLSLP [MAGEC3_Y152]
NOT MET

Form field: SH2 binding enrichment at least 0.8? Entry: WIPIQDPIISE [NOG_Y222_Y222D]
NOT MET

Form field: SH2 binding enrichment at least 0.8? Entry: AEPTGYSAELS [EZR_Y499]
NOT MET

Form field: SH2 binding enrichment at least 0.8? Entry: CTTIHYNFMCK [TP53_Y234_N239K_YF]
MET

Form field: SH2 binding enrichment at least 0.8? Entry: MDNQEYKDAYT [BRDT_Y331_K336T]
NOT MET

Form field: SH2 binding enrichment at least 0.8? Entry: FSTDFYRVGGH [NTRK2_Y707_YF]
MET

Form field: SH2 binding enrichment at least 0.8? Entry: NCFKYYMSDDI [ATRX_Y204]
MET

Form field: SH2 binding enrichment at least 0.8? Entry: NAMRRHIEEFQ [MNS1_Y244_Y244H]
NOT MET

Form field: SH2 binding enrichment at least 0.8? Entry: FTGDIYSNSNL [LZTR1_Y141_YF]
NOT MET

Form field: SH2 binding enrichment at least 0.8? Entry: HFGNNYRDVLQ [MACC1_Y803_YF]
MET

Form field: SH2 binding enrichment at least 0.8? Entry: NHQYDYTFDWT [CSNK1A1_Y294]
MET

Form field: SH2 binding enrichment at least 0.8? Entry: KFLENYFDLKK [MMP3_Y41_YF]
MET

Form field: SH2 binding enrichment at least 0.8? Entry: LEAVSYSSPFA [RNLS_Y190_R193P_YF]
MET

Form field: SH2 binding enrichment at least 0.8? Entry: EFQLPYFNMVP [BMPR1A_Y457_YF]
MET

Form field: SH2 binding enrichment at least 0.8? Entry: YTHSDYQYGQR [PKP2_Y166_S169G]
NOT MET

Form field: SH2 binding enrichment at least 0.8? Entry: IIEDPYFGNDS [ACP1_Y132_YF]
MET

Form field: SH2 binding enrichment at least 0.8? Entry: SVVVPCEPPEV [TP53_Y220_Y220C]
MET

Form field: SH2 binding enrichment at least 0.8? Entry: SDGHEYIFVDR [PDGFRB_Y579_P584R_YF]
MET

Form field: SH2 binding enrichment at least 0.8? Entry: RELGEYPLAEF [ALDH1A3_Y492_A493P_YF]
NOT MET

Form field: SH2 binding enrichment at least 0.8? Entry: VVPGSYDRLRV [IFT172_Y260_L257P]
NOT MET

Form field: SH2 binding enrichment at least 0.8? Entry: TESNNYIYKTL [FAM83B_Y637]
NOT MET

Form field: SH2 binding enrichment at least 0.8? Entry: EIASHYRHLLR [ZBTB46_Y14_T11A]
NOT MET

Form field: SH2 binding enrichment at least 0.8? Entry: YGTAQYCCRMG [LRRK2_Y2023_I2020T]
MET

Form field: SH2 binding enrichment at least 0.8? Entry: PFAEPYADFGG [APBA1_Y187_S184A_YF]
NOT MET

Form field: SH2 binding enrichment at least 0.8? Entry: ANAYIYVVQLP [L1CAM_Y420]
MET

Form field: SH2 binding enrichment at least 0.8? Entry: IKELTYQTEED [MYH7_Y1852]
MET

Form field: SH2 binding enrichment at least 0.8? Entry: GRKTLYSFFSP [UNG_Y8_Q4R]
MET

Form field: SH2 binding enrichment at least 0.8? Entry: RHPFFFAPELL [ALB_Y174_Y174F_YF]
MET

Form field: SH2 binding enrichment at least 0.8? Entry: DKGTLYIAEQI [PLBD1_Y375_V377A]
NOT MET

Form field: SH2 binding enrichment at least 0.8? Entry: AKKKMYSHKTK [AGXT_Y231_R233H]
MET

Form field: SH2 binding enrichment at least 0.8? Entry: DKATEYIQFMR [MAX_Y70_YF]
MET

Form field: SH2 binding enrichment at least 0.8? Entry: EPVSDYINASI [PTPN11_Y304_N308S]
MET

Form field: SH2 binding enrichment at least 0.8? Entry: LFCLHYFHRTF [SRD5A2_Y91_V89L]
MET

Form field: SH2 binding enrichment at least 0.8? Entry: ESMQSYDLDYP [UNC13B_Y243_D238E]
NOT MET

Form field: SH2 binding enrichment at least 0.8? Entry: DLGIQYKALKP [CTNNA1_Y177]
MET

Form field: SH2 binding enrichment at least 0.8? Entry: DHPSEYAARQL [ANXA13_Y90_R86H]
MET

Form field: SH2 binding enrichment at least 0.8? Entry: NCLREYVAGRF [CRB1_Y711]
MET

Form field: SH2 binding enrichment at least 0.8? Entry: AHPGEYGAEAL [HBA1_Y25_A22P]
NOT MET

Form field: SH2 binding enrichment at least 0.8? Entry: DTQNSYGCATS [TSC1_Y304]
MET

Form field: SH2 binding enrichment at least 0.8? Entry: FGCGMYSHLQG [LGR4_Y848_D844G_YF]
MET

Form field: SH2 binding enrichment at least 0.8? Entry: CTTIHCNFMCN [TP53_Y234_Y234C_YF]
MET

Form field: SH2 binding enrichment at least 0.8? Entry: PLRAYYLIARV [HLCS_Y635_D634Y]
MET

Form field: SH2 binding enrichment at least 0.8? Entry: LLSVAYKNVVG [YWHAG_Y49]
MET

Form field: SH2 binding enrichment at least 0.8? Entry: SEEVTYATLTF [CLEC12B_Y7]
MET

Form field: SH2 binding enrichment at least 0.8? Entry: EEHIPCTHMNG [INSR_Y1361_Y1361C]
NOT MET

Form field: SH2 binding enrichment at least 0.8? Entry: TFEFRYLEDRD [CNOT3_Y746_YF]
MET

Form field: SH2 binding enrichment at least 0.8? Entry: ERSMSYCDESR [SMG1_Y143_S144C]
MET

Form field: SH2 binding enrichment at least 0.8? Entry: WDLSEYSFKDP [ITGA3_Y237_YF]
MET

Form field: SH2 binding enrichment at least 0.8? Entry: FKGIVYSVSSD [DCX_Y70_A71S]
NOT MET

Form field: SH2 binding enrichment at least 0.8? Entry: EEGRVYVFRLS [ITGAE_Y549_YF]
MET
